Origin of values: patent US8951985B2

System: Zluc cells (Huh-7-derived cell line)
Test: Cytotoxicity evaluation, CellTiter-Blue Cell Viability Assay
Type: cell-based
Conditions: read-out: HCV Replicon CC50
value_type: CC50

compound: CCOC(=O)COP(=O)(N[C@@H](CC(C)C)C(=O)OC(C)C)OC[C@H]1O[C@@H](n2cnc3c(OC)nc(N)nc32)[C@](C)(O)[C@@H]1O (single isomer, unassigned) [Compound 11b]
reported: 50 to 99 µM

* * *

Listed molecules paired with reported CC50
Assay: Cytotoxicity evaluation, CellTiter-Blue Cell Viability Assay
Format: cell-based
Details: human, Zluc cells (Huh-7-derived HCV replicon cell line)
value_type: CC50

molecule: CCOC(=O)COP(=O)(N[C@H](C(=O)OC)C(C)C)OC[C@H]1O[C@@H](n2cnc3c(OCC)nc(N)nc32)[C@](C)(O)[C@@H]1O (mixture of isomers) [Compound 7]
value_type: CC50
reported: ≥ 100 µM

molecule: CCOC(=O)COP(=O)(NC(C(=O)OCC)c1ccccc1)OC[C@H]1O[C@@H](n2cnc3c(OC)nc(N)nc32)[C@](C)(O)[C@@H]1O (stereo partly drawn) [Compound 8]
value_type: CC50
reported: ≥ 100 µM

molecule: COc1nc(N)nc2c1ncn2[C@@H]1O[C@H](COP(=O)(N[C@@H](CC(C)C)C(=O)OC(C)C)OC(C)C(=O)OCc2ccccc2)[C@@H](O)[C@@]1(C)O (stereo partly drawn) [Compound 4]
value_type: CC50
reported: 50 to 99 µM
